Just for reference, the supplement of paper PMC10567573 is where these values come from.

B1: MAGEA6 (parent)
chain: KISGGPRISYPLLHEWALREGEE

Variants of: B1
measurementDescription: protein stability index of a GFP-peptide fusion (GPS, HEK-293T) (PSI 1-6); higher = more stable;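 further: lentivirally expressed fusions sorted by FACS into six bins by GFP to DsRed ratio, PSI derived from sequencing read proportions per bin multiplied by bin number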
condition: c terminus: native
observedProperty: protein stability index
Please reply with the number alone, leaving off any unit.

The examples below pair each entry with its known result.
- mutationSpec: "E15K"
  protein stability index: 3.16
- mutationSpec: "I2W"
  protein stability index: 2.41
- mutationSpec: "E20S"
  protein stability index: 4.57
- mutationSpec: "W16F"
  protein stability index: 2.74
- mutationSpec: "L13M"
  protein stability index: 1.77
- mutationSpec: "R19A"
  protein stability index: 2.07
- mutationSpec: "E20K"
  protein stability index: 3.74
- mutationSpec: "G4P"
  protein stability index: 5.66
- mutationSpec: "P11S"
  protein stability index: 2.66
- mutationSpec: "E22T"
  protein stability index: 2.36

// query So what does the record say about protein stability index for "W16C" ?
// result 2.94

// query Given the variant "E22N" , what is its reported protein stability index?
// result 2.53

// query Record request: protein stability index value, item "G4S"
// result 5.95

// query What does the data say about its protein stability index? Entry: "E20P"
// result 2.36

// query Requested field: protein stability index. Item: "Y10L"
// result 3.04

// query What measured protein stability index goes with "E23K" ?
// result 2.88

// query Returns the measured protein stability index for the input variant. Input: "A17N"
// result 3.69

// query Would you kindly share the measured protein stability index for "P6K" ?
// result 1.55

// query protein stability index for "Y10H" ?
// result 2.83
